- ASSAY_TEXT: Selectivity index, ratio of CC50 for cytotoxicity against human THP-1 cells to IC50 for antileishmanial activity against Leishmania donovani infected in human THP-1 cells
- Assay type: toxicity, cell-based
- APPLIED_CONDITIONS: read-out: Ratio CC50/IC50
Measured selectivity ratio, listed per entry for reference.

1) COc1cccc(-c2cnc(NC(=O)c3ccc(F)cc3)n2C)c1; > 1
2) COc1ccc(-c2cnc(NC(=O)c3ccn[nH]3)n2C)cc1; > 1
3) COc1ccc2c(c1)nc(NC(=O)c1ccc(F)cc1)n2C; > 2.6
4) Cn1c(-c2ccccc2)cnc1NC(=O)c1ccc(Br)cc1; > 2.7
5) Cn1c(-c2ccccc2F)cnc1NC(=O)c1ccc(F)cc1; > 1

Consider the compound Cn1c(-c2cccc(C#N)c2)cnc1NC(=O)c1ccc(F)cc1 and give its measured selectivity ratio.
> 6.3

I would be grateful if you could share the reported selectivity ratio for Cn1c(-c2cccc(Br)c2)cnc1NC(=O)c1ccc(F)cc1 .
> 9.3

What selectivity ratio value was documented for this compound, Cn1c(-c2cccc(F)c2)cnc1NC(=O)c1ccc(F)cc1 ?
4.8

Which value of selectivity ratio has been reported for Cc1ccccc1-c1cnc(NC(=O)c2ccc(F)cc2)n1C in the records?
> 13

Returns the measured selectivity ratio for the input compound. Input: COc1ccc(-c2cnc(NC(=O)c3ccccc3F)n2C)cc1
> 1

Look up selectivity ratio: COc1ccc(CNC(=O)NC(=O)c2ccc(F)cc2)cc1
> 1

I have this compound here, COc1ccc(-c2cnc(NC(=O)c3ccc(F)cc3)n2Cc2ccccc2)cc1 , and I need its recorded selectivity ratio.
1.4
